tested on: A375P cell line (melanoma); test: Proliferation inhibition activity against A375P cell line (MTT assay); type: cell-based; conditions: A375P melanoma cells, MTT assay; read-out: A375P (GI50)
measured_parameter: GI50

Guide cases for GI50, answers given:
// query Query: GI50; subject: `O=C1CC(c2cccc(NC(=O)Nc3cccc(Cl)c3)c2)=Nc2cscc2N1`
// result < 1 µM

// query Query: GI50; subject: `O=C1CC(c2ccc(NC(=O)c3ccc(N4CCOCC4)c(C(F)(F)F)c3)cc2)=Nc2cscc2N1`
// result 1 to 10 µM

// query Query: GI50; subject: `Cc1cn(-c2cc(C(=O)Nc3cccc(C4=Nc5cscc5NC(=O)C4)c3)cc(C(F)(F)F)c2)cn1`
// result 10 to 30 µM

// query Query: GI50; subject: `O=C1CC(c2ccc(NC(=O)c3ccncc3)cc2)=Nc2cscc2N1`
// result 10 to 30 µM

***
// query Query: GI50; subject: `CN1CCN(c2cc(C(=O)Nc3cccc(C4=Nc5cscc5NC(=O)C4)c3)cc(C(F)(F)F)c2)CC1`
// result 10 to 30 µM

// query Query: GI50; subject: `O=C1CC(c2cccc(NC(=O)c3cc(N4CCOCC4)cc(C(F)(F)F)c3)c2)=Nc2cscc2N1`
// result < 1 µM

// query Query: GI50; subject: `O=C1CC(c2ccc(NC(=O)c3ccc(-c4ccccc4)cc3)cc2)=Nc2cscc2N1`
// result < 1 µM

// query Query: GI50; subject: `N#Cc1ccccc1Sc1ccccc1C(=O)Nc1cccc(C2=Nc3cscc3NC(=O)C2)c1`
// result 10 to 30 µM

* * *

system: A375P cell line (melanoma); experiment: Proliferation inhibition activity against A375P cell line (MTT assay); assay type: cell-based; details: A375P melanoma cells, MTT assay; read-out: A375P (GI50)
measured_parameter: GI50

Guide cases for GI50, answers given:
// query Query: GI50; subject: O=C1CC(c2ccc(NC(=O)c3ccccc3-c3ccccc3)cc2)=Nc2cscc2N1 [Example 6]
// result 10 to 30 µM

// query Query: GI50; subject: O=C1CC(c2ccc(NC(=O)c3cnccn3)cc2)=Nc2cscc2N1 [Example 11]
// result 10 to 30 µM

***
// query Query: GI50; subject: O=C1CC(c2cccc(NC(=O)C(c3ccc(Cl)cc3)c3ccc(Cl)cc3)c2)=Nc2cscc2N1 [Example 26]
// result 10 to 30 µM

// query Query: GI50; subject: O=C1CC(c2cccc(NC(=O)c3ccc(-c4ccccc4)cc3)c2)=Nc2cscc2N1 [Example 22]
// result 10 to 30 µM

// query Query: GI50; subject: CN1CCN(c2cc(C(=O)Nc3ccc(C4=Nc5cscc5NC(=O)C4)cc3)cc(C(F)(F)F)c2)CC1 [Example 12]
// result 10 to 30 µM

// query Query: GI50; subject: O=C1CC(c2ccc(NC(=O)Nc3ccc(Cl)c(Cl)c3)cc2)=Nc2cscc2N1 [Example 42]
// result 1 to 10 µM

// query Query: GI50; subject: O=C1CC(c2cccc(NC(=O)Nc3ccc(Cl)cc3)c2)=Nc2cscc2N1 [Example 47]
// result 1 to 10 µM

* * *

system: A375P cell line (melanoma); test: Proliferation inhibition activity against A375P cell line (MTT assay); assay type: cell-based; conditions: A375P melanoma cells, MTT assay; read-out: A375P (GI50)
# maps each entry to its GI50

// query Lab note: need GI50 with A375P cell line (melanoma) for entry O=C(Cc1c[nH]c2ccccc12)Nc1cccc(C2=Nc3cscc3NC(=O)C2)c1 [Example 31] , please look it up.
// result 10 to 30 µM

***
// query Lab note: need GI50 with A375P cell line (melanoma) for entry O=C1CC(c2cccc(NC(=O)c3ccccc3-c3ccccc3)c2)=Nc2cscc2N1 [Example 23] , please look it up.
// result 10 to 30 µM

// query Lab note: need GI50 with A375P cell line (melanoma) for entry N#Cc1ccccc1Sc1ccccc1C(=O)Nc1ccc(C2=Nc3cscc3NC(=O)C2)cc1 [Example 15] , please look it up.
// result 10 to 30 µM

// query Lab note: need GI50 with A375P cell line (melanoma) for entry O=C1CC(c2ccc(NC(=O)c3cc(N4CCOCC4)cc(C(F)(F)F)c3)cc2)=Nc2cscc2N1 [Example 3] , please look it up.
// result < 1 µM

// query Lab note: need GI50 with A375P cell line (melanoma) for entry O=C1CC(c2ccc(NC(=O)Nc3ccc(Cl)cc3)cc2)=Nc2cscc2N1 [Example 40] , please look it up.
// result 1 to 10 µM

// query Lab note: need GI50 with A375P cell line (melanoma) for entry O=C1CC(c2cccc(NC(=O)c3ccc(Cl)cc3)c2)=Nc2cscc2N1 [Example 30] , please look it up.
// result 10 to 30 µM

// query Lab note: need GI50 with A375P cell line (melanoma) for entry Cc1cn(-c2cc(C(=O)Nc3ccc(C4=Nc5cscc5NC(=O)C4)cc3)cc(C(F)(F)F)c2)cn1 [Example 2] , please look it up.
// result < 1 µM

// query Lab note: need GI50 with A375P cell line (melanoma) for entry CC(=O)N1CCC(C(=O)Nc2ccc(C3=Nc4cscc4NC(=O)C3)cc2)CC1 [Example 8] , please look it up.
// result 10 to 30 µM

// query Lab note: need GI50 with A375P cell line (melanoma) for entry O=C1CC(c2cccc(NC(=O)c3cnccn3)c2)=Nc2cscc2N1 [Example 28] , please look it up.
// result 10 to 30 µM

// query Lab note: need GI50 with A375P cell line (melanoma) for entry O=C1CC(c2cccc(NC(=O)c3ccc4ccccc4n3)c2)=Nc2cscc2N1 [Example 36] , please look it up.
// result 10 to 30 µM

// query Lab note: need GI50 with A375P cell line (melanoma) for entry O=C1CC(c2cccc(NC(=O)c3cnc4ccccc4c3)c2)=Nc2cscc2N1 [Example 37] , please look it up.
// result 10 to 30 µM

// query Lab note: need GI50 with A375P cell line (melanoma) for entry CCN1CCN(Cc2ccc(NC(=O)Nc3ccc(C4=Nc5cscc5NC(=O)C4)cc3)cc2C(F)(F)F)CC1 [Example 43] , please look it up.
// result < 1 µM

// query Lab note: need GI50 with A375P cell line (melanoma) for entry O=C(Cc1ccc(-c2ccccc2)cc1)Nc1ccc(C2=Nc3cscc3NC(=O)C2)cc1 [Example 16] , please look it up.
// result 10 to 30 µM
